# credit: paper PMC12344671

tested on: mDUSP-H1 (DUSP-H1 from monkeypox virus) (Monkeypox virus)
Sequence (A0A7H0DN78 whole entry, looked up): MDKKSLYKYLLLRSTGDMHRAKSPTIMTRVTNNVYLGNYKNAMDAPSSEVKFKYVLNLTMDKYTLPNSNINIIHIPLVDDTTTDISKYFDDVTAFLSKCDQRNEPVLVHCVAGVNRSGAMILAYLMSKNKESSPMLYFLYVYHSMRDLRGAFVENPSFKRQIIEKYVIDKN
Give pIC50 for every item shown.
// scale note: pIC50 = -log10(conc_M); give the bare number

According to the records, this compound Oc1cc(O)c2c(c1)O[C@@H](c1cc(O)c(O)c(O)c1)[C@H](O)C2 [(−)-Gallocatechin] displays pIC50 of 5.02

According to the records, this compound `O=c1cc(-c2ccccc2)oc2cc(O)c(O)c(O)c12` displays pIC50 of 4.95

According to the records, this compound `O=c1cc(-c2ccc(O)cc2)oc2c(-c3c(O)cc(O)c4c(=O)cc(-c5ccc(O)cc5)oc34)c(O)cc(O)c12` displays pIC50 of 4.95

According to the records, this compound O=C(O[C@@H]1Cc2c(O)cc(O)cc2O[C@@H]1c1cc(O)c(O)c(O)c1)c1cc(O)c(O)c(O)c1 [(−)-Epigallocatechin gallate] displays pIC50 of 4.85

According to the records, this compound `O=c1c(O)c(-c2ccc(O)cc2)oc2c(O)c(O)cc(O)c12` displays pIC50 of 4.90
